- TESTED_ON: RARα (Homo sapiens)
- Construct: gal4 (fusion partner); expressed in transfected cells; host or cells: COS-7
- PROTOCOL_NOTES: Transactivation assay for RAR alpha (gal4-RAR fusion, luciferase reporter, COS-7 cells)
- Assay type: cell-based
- REPORTED_CONDITIONS: ratio of test compound EC50 to that of atRA on the same plate
READOUT_TYPE: RARα activity ratio

// solved cases for RARα activity ratio follow
[[record]]
compound = "O=C(O)c1ccc(NC(=O)c2cc(Cl)c(OC3CCC3)c(OC3CCC3)c2)cc1 [AAA-092]"
observed_measurement = 2

[[record]]
compound = "COc1c(Cl)cc(C(=O)Nc2ccc(C(=O)O)c(F)c2)cc1C(F)(F)F [AAA-066]"
observed_measurement = 32

[[record]]
compound = "CCOc1c(Br)cc(C(=O)Nc2ccc(C(=O)O)c(C)c2)cc1C(F)(F)F [AAA-071]"
observed_measurement = 5.2

[[record]]
compound = "CC(C)Oc1cc(C(=O)Nc2ccc(C(=O)O)c(F)c2)cc(Cl)c1OC(C)C [AAA-095]"
observed_measurement = 2.7

[[record]]
compound = "CC(C)(C)Oc1c(Cl)cc(C(=O)Nc2ccc(C(=O)O)cc2)cc1C(F)(F)F [AAA-037]"
observed_measurement = 0.25

[[record]]
compound = "CCOc1c(Cl)cc(C(=O)Nc2ccc(C(=O)OC)c(Cl)c2)cc1Cl [AAA-017]"
observed_measurement = 140

[[record]]
compound = "CCOc1cc(C(=O)Nc2ccc(C(=O)O)c(F)c2)cc(OC(CC)CC)c1Cl [AAA-116]"
observed_measurement = 4.5

[[record]]
compound = "CC(C)Oc1cc(C(=O)Nc2ccc(C(=O)O)c(F)c2)cc(OC(C)C)c1Br [AAA-108]"
observed_measurement = 5.1

[[record]]
compound = "COc1c(OC(C)C)cc(C(=O)Nc2ccc(C(=O)O)cc2)cc1OC(C)C [AAA-062]"
observed_measurement = 85

[[record]]
compound = "Cc1cc(NC(=O)c2cc(Cl)c(Cl)c(OC(C)C)c2)ccc1C(=O)O [AAA-113]"
observed_measurement = 3.9


I = CCC(CC)Oc1cc(C(=O)Nc2ccc(C(=O)O)cc2)cc(Cl)c1OC [AAA-101]
II = Cc1cc(NC(=O)c2cc(Cl)c(OC(C)C)c(C(F)(F)F)c2)ccc1C(=O)O [AAA-040]
Exercise: # query: argmin of RARα activity ratio over I and II Give the chosen item's label as your response.
Key: II

* * *

- TESTED_ON: RARβ (Homo sapiens)
- Construct: gal4 (fusion partner); expressed in transfected cells; host or cells: COS-7
- Sequence (P10826 183-417 limits assumed, species assumed): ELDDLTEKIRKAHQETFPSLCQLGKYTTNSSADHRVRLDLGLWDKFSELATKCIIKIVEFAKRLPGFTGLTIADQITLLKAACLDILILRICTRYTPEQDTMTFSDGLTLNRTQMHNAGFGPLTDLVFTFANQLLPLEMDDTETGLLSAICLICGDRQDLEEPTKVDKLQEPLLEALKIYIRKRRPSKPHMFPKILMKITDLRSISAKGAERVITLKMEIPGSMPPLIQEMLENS
- PROTOCOL_NOTES: Transactivation assay for RAR beta (gal4-RAR fusion, luciferase reporter, COS-7 cells)
- Format: cell-based
- REPORTED_CONDITIONS: ratio of test compound EC50 to that of atRA; inactive = no agonist action at the highest concentration tested
READOUT_TYPE: RARβ activity ratio

[[record]]
chemical_structure = "O=C(O)c1ccc(NC(=O)c2cc(Cl)c(OC3CCC3)c(OC3CCC3)c2)cc1"
readout_type = "RARβ activity ratio"
observed_measurement = 53

[[record]]
chemical_structure = "CCC(CC)Oc1cc(C(=O)Nc2ccc(C(=O)O)c(F)c2)cc(Cl)c1OC"
readout_type = "RARβ activity ratio"
observed_measurement = 57


* * *

- TESTED_ON: RARα (Homo sapiens, UniProt P10276)
- Construct: gal4 (fusion partner); expressed in transfected cells; host or cells: COS-7
- Sequence (P10276 183-417 limits assumed, species assumed): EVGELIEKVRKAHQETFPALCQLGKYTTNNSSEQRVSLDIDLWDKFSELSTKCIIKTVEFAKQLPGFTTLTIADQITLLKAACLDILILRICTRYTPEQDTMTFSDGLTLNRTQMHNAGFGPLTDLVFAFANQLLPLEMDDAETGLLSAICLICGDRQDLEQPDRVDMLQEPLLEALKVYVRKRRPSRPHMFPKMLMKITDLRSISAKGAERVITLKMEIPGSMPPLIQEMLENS
- PROTOCOL_NOTES: Transactivation assay for RAR alpha (gal4-RAR fusion, luciferase reporter, COS-7 cells)
- Format: cell-based
- REPORTED_CONDITIONS: fold-selectivity for RARα over RARβ
READOUT_TYPE: RARα/RARβ ratio (*)

Solved cases (4 shown):
[[record]]
compound = "Cc1cc(NC(=O)c2cc(F)c(OC(C)C)c(Cl)c2)ccc1C(=O)O"
observed_measurement = 210

[[record]]
compound = "CCOc1c(Cl)cc(NC(=O)c2ccc(C(=O)O)cn2)cc1Cl"
observed_measurement = 2.0

[[record]]
compound = "CCOc1c(Br)cc(C(=O)Nc2ccc(C(=O)O)cc2)cc1C(F)(F)F"
observed_measurement = 68

[[record]]
compound = "CC(C)Oc1cc(C(=O)Nc2ccc(C(=O)O)c(F)c2)cc(Cl)c1OC(C)C"
observed_measurement = 34


I = CCOc1c(Cl)cc(C(=O)Nc2ccc(C(=O)O)c(O)c2)cc1OC(C)C
II = O=C(O)c1ccc(NC(=O)c2cc(Cl)c(OC3CCC3)c(OC3CCC3)c2)cc1
Exercise: Between item I and item II , which reported RARα/RARβ ratio (*) is smaller? Pick one and reply with its label.
Key: II

* * *

- TESTED_ON: RARα (Homo sapiens)
- Construct: gal4 (fusion partner); expressed in transfected cells; host or cells: COS-7
- PROTOCOL_NOTES: Transactivation assay for RAR alpha (gal4-RAR fusion, luciferase reporter, COS-7 cells)
- Assay type: cell-based
- REPORTED_CONDITIONS: fold-selectivity for RARα over RARβ
READOUT_TYPE: RARα/RARβ ratio (*)

Consider the following illustrative entries.
[[record]]
chemical_structure = "COc1cc(C(=O)Nc2ccc(C(=O)O)cc2)cc(Cl)c1OC(C)C"
observed_measurement = 10

[[record]]
chemical_structure = "COc1c(Cl)cc(C(=O)Nc2ccc(C(=O)O)cc2)cc1OCC(C)(C)C"
observed_measurement = 13

[[record]]
chemical_structure = "CCOc1c(Br)cc(NC(=O)c2ccc(C(=O)O)cc2)cc1Br"
observed_measurement = 23.3


1 = CC(C)(C)Oc1cc(C(=O)Nc2ccc(C(=O)O)cc2)cc(OC(C)(C)C)c1OC(C)(C)C
2 = O=C(O)c1ccc(NC(=O)c2cc(Cl)c(OCc3ccncc3)c(Cl)c2)cc1
3 = CC(C)Oc1cc(C(=O)Nc2ccc(C(=O)O)cc2)cc(OC(C)C)c1OC(C)C
Exercise: Rank the items in ascending order with respect to RARα/RARβ ratio (*). Provide the ranking by listing each label in its place in the requested order.
Key: 2, 1, 3

* * *

- TESTED_ON: RARα (Homo sapiens, UniProt P10276)
- Construct: gal4 (fusion partner); expressed in transfected cells; host or cells: COS-7
- PROTOCOL_NOTES: Transactivation assay for RAR alpha (gal4-RAR fusion, luciferase reporter, COS-7 cells)
- Assay type: cell-based
- REPORTED_CONDITIONS: ratio of test compound EC50 to that of atRA on the same plate
READOUT_TYPE: RARα activity ratio

Worked examples follow.
[[record]]
chemical_structure = "CCOc1c(OC(C)C)cc(C(=O)Nc2ccc(C(=O)O)c(C)c2)cc1OC(C)C"
observed_measurement = 44

[[record]]
chemical_structure = "Cc1cc(NC(=O)c2cc(OC(C)C)c(Br)c(OC(C)C)c2)ccc1C(=O)O"
observed_measurement = 10

[[record]]
chemical_structure = "CCOc1c(Cl)cc(C(=O)Nc2ccc(C(=O)O)c(C(F)(F)F)c2)cc1Cl"
observed_measurement = 13

[[record]]
chemical_structure = "CC(C)Oc1cc(C(=O)Nc2ccc(C(=O)O)cc2)cc(OC(C)C)c1Br"
observed_measurement = 4.8

[[record]]
chemical_structure = "COc1c(Cl)cc(C(=O)Nc2ccc(C(=O)O)c(F)c2)cc1OC(C)C"
observed_measurement = 6.7


1 = CC(C)Oc1c(Cl)cc(C(=O)Nc2ccc(C(=O)O)c(F)c2)cc1C(F)(F)F
2 = CCOc1cc(C(=O)Nc2ccc(C(=O)O)cc2)cc(Cl)c1OC(C)C
3 = COc1c(Cl)cc(C(=O)Nc2ccc(C(=O)O)c(C)c2)cc1OC1CCC1
Exercise: Rank the 3 compounds: largest RARα activity ratio first, smallest last. Please list each label once, in the requested order.
Key: 3, 2, 1
(3: 11, 2: 2.1, 1: 1.2)

* * *

- TESTED_ON: RARα (Homo sapiens, UniProt P10276)
- Construct: gal4 (fusion partner); expressed in transfected cells; host or cells: COS-7
- PROTOCOL_NOTES: Transactivation assay for RAR alpha (gal4-RAR fusion, luciferase reporter, COS-7 cells)
- Format: cell-based
- REPORTED_CONDITIONS: fold-selectivity for RARα over RARβ
READOUT_TYPE: RARα/RARβ ratio (*)

Please review the following examples before continuing.
[[record]]
compound = "O=C(O)c1ccc(NC(=O)c2cc(Cl)c(OC3CCCC3)c(C(F)(F)F)c2)cc1 [AAA-043]"
observed_measurement = 27

[[record]]
compound = "O=C(O)c1ccc(NC(=O)c2cc(Cl)c(OC3CCCCC3)c(OC3CCCCC3)c2)cc1 [AAA-047]"
observed_measurement = 2

[[record]]
compound = "CC(C)Oc1cc(C(=O)Nc2ccc(C(=O)O)cc2)cc(OC(C)C)c1Br [AAA-107]"
observed_measurement = 135

[[record]]
compound = "CCOc1c(Cl)cc(C(=O)Nc2ccc(C(=O)O)cc2)cc1OC [AAA-084]"
observed_measurement = 234


a = CCOc1c(Cl)cc(C(=O)Nc2ccc(C(=O)O)c(O)c2)cc1Cl [AAA-057]
b = O=C(O)c1ccc(NC(=O)c2cc(Cl)cc(Cl)c2)cc1 [XXX-03, 4-(3,5-Dichlorobenzamido)benzoic acid, reference compound]
Exercise: Parameter check: reported RARα/RARβ ratio (*) is higher for which label, a or b ? Respond using the label that marks the chosen record.
Key: a
